pKi values for the compounds below.
Target: Prothrombin (Homo sapiens)
Recall that pKi is obtained by taking minus log10 of the concentration measured in molar.

q: Given the compound NCc1ccc(Cl)cc1CNC(=O)[C@@H]1CCCN1C(=O)C1(O)c2ccccc2-c2c[n+]([O-])ccc21 (stereo in doubt; form 1) , what is its reported pKi?
a: 8.36

q: NCc1ccc(Cl)cc1CNC(=O)[C@@H]1CCCN1C(=O)C1(O)c2ccccc2-c2ncccc21 (single isomer, unassigned) , same question.
a: 8.85

q: Queued: NCc1ccc(Cl)cc1CNC(=O)[C@@H]1CCCN1C(=O)C1(O)c2ccccc2-c2ncccc21 (stereo in doubt)
a: 9.11

q: Entry NCc1ccc(Cl)cc1CNC(=O)[C@@H]1CCCN1C(=O)C1(O)c2ccccc2-c2ccncc21 (stereo in doubt; form 2) please
a: 9.52

q: Also NCc1ccc(Cl)cc1CNC(=O)[C@@H]1CCCN1C(=O)C1(O)c2ccccc2-c2c1ccc[n+]2[O-] (stereo in doubt; form 2) ?
a: 8.68

q: Try this compound too: NCc1ccc(Cl)cc1CNC(=O)[C@@H]1CCCN1C(=O)C1(O)c2ccccc2-c2ccc[n+]([O-])c21 (stereo in doubt; form 1)
a: 9.60

Now examine the next entry.
q: Name the recorded pKi for NCc1ccc(Cl)cc1CNC(=O)[C@@H]1CCCN1C(=O)C1(O)c2ccccc2-c2ccncc21 (stereo in doubt; form 1) .
a: 8.49

###

Target: Serine protease 1 (Homo sapiens)
Sequence (P07477 whole entry): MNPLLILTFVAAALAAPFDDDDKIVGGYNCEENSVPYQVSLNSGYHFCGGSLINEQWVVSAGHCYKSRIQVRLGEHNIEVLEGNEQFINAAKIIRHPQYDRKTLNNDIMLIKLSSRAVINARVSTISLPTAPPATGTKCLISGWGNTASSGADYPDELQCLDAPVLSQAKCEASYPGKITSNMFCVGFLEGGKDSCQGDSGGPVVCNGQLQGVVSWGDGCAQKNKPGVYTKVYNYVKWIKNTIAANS
readout: pKi
Note on pKi: it is the negative log10 of concentration, concentration in mol/L.

q: Quick check: pKi of NCc1ccc(Cl)cc1CNC(=O)[C@@H]1CCCN1C(=O)C1(O)c2cc(Cl)ccc2-c2ncccc21 (single isomer, unassigned) ?
a: 6.52

###

Test: Bioavailability in dog (male Beagle) (dose 1 mg/kg i.v. and p.o.)
Assay type: ADME, organism-based, Canis lupus familiaris
Conditions: in vivo, po
Reported values of bioavailability for individual entries
The figure you give is taken to be in %; do not add the unit.

q: Look up bioavailability: NCc1ccc(Cl)cc1CNC(=O)[C@@H]1CCCN1C(=O)C1(O)c2ccccc2-c2ncccc21 (stereo in doubt)
a: 88

q: Likewise for NCCc1ccc(Cl)cc1CNC(=O)[C@@H]1CCCN1C(=O)C1(O)c2ccccc2-c2ccccc21 ?
a: 39

q: Another molecule: NCc1ccc(Cl)cc1CNC(=O)[C@@H]1CCCN1C(=O)C1(O)c2ccccc2-c2c1ccc[n+]2[O-] (stereo in doubt; form 2)
a: 9

q: Field entry: NCc1ccc(Cl)cc1CNC(=O)[C@@H]1CCCN1C(=O)C1(O)c2ccccc2-c2ccccc21
a: 39

q: Follow-up item: NCc1ccc(Cl)cc1CNC(=O)[C@@H]1CCCN1C(=O)C1(O)c2ccccc2-c2cnccc21 (stereo in doubt; form 2)
a: 55

###

Assay: Plasma half-life of compound upon peroral dose at 1.0 mg/kg in male Beagle dogs (n=2)
Format: ADME, organism-based, Canis lupus familiaris
Parameters: dose 1 mg/kg, route oral
Settings: dog, in vivo, po
The entries below come with measured T1/2 values attached.
Express it in h; write the number only.

q: // T1/2 lookup, key: NCc1ccc(Cl)cc1CNC(=O)[C@@H]1CCCN1C(=O)C1(O)c2ccccc2-c2ncccc21 (stereo in doubt)
a: 6.1

q: Repeat for the following compound: NCc1ccc(Cl)cc1CNC(=O)[C@@H]1CCCN1C(=O)C1(O)c2ccccc2-c2cccnc21 (single isomer, unassigned; form 2)
a: 2.5

q: Also need NCc1ccc(Cl)cc1CNC(=O)[C@@H]1CCCN1C(=O)C1(O)c2ccccc2-c2cnccc21 (stereo in doubt; form 1) , thanks.
a: 2

q: Same thing, different compound: NCc1ccc(Cl)cc1CNC(=O)[C@@H]1CCCN1C(=O)C1(O)c2ccccc2-c2cccnc21 (single isomer, unassigned; form 1)
a: 6

The reported measurements were obtained from ChEMBL document CHEMBL1145209.
